Origin of measurements: patent US5629298A

TESTED_SYSTEM: ventricular myocyte membrane adenylyl cyclase
METHOD_DESCRIPTION: Adenylyl cyclase activity of ventricular myocyte membranes
Format: biochemical, rat
CONDITIONS: without DPCPX; read-out: EC50 for activation of cyclase
MEASUREMENT_TYPE: pEC50
# pEC50 is unitless: minus log10 of the molar concentration; print number only

Query block: Any idea what pEC50 came out for CCNC(=O)[C@H]1O[C@@H](n2cnc3c(N)ncnc32)[C@H](O)[C@@H]1O on ventricular myocyte membrane adenylyl cyclase?
Result block: 4.77

---

Tested on: rat ventricular myocytes
METHOD_DESCRIPTION: Contractile function of individual ventricular myocytes (line scan camera edge detection, paced at 0.5 Hz)
Format: cell-based
CONDITIONS: Rattus norvegicus, Ventricular myocyte, read-out: EC50 for DS
MEASUREMENT_TYPE: pEC50
# pEC50 is unitless: minus log10 of the molar concentration; print number only

Query block: Look up pEC50 for this compound: CCNC(=O)[C@H]1O[C@@H](n2cnc3c(N)nc(NCCc4ccc(CCC(=O)O)cc4)nc32)[C@H](O)[C@@H]1O
Result block: 7.59

---

Test system: rat ventricular myocytes
METHOD_DESCRIPTION: Contractile function of individual ventricular myocytes (line scan camera edge detection, paced at 0.5 Hz)
Type: cell-based
CONDITIONS: Rattus norvegicus, Ventricular myocyte, read-out: EC50 for LC
MEASUREMENT_TYPE: EC50 (nM)
Note: unit nM is implicit; provide only the numeric part.

Query block: Look up EC50 for this compound: CCNC(=O)[C@H]1O[C@@H](n2cnc3c(N)nc(NCCc4ccc(CCC(=O)O)cc4)nc32)[C@H](O)[C@@H]1O
Result block: 6.1

---

System: cultured ventricular myocytes
METHOD_DESCRIPTION: cAMP content of cultured ventricular myocytes (125I-cAMP RIA)
Assay type: cell-based, rat
CONDITIONS: Rattus norvegicus, Ventricular myocyte, 10 min; read-out: EC50 for increase in myocyte cAMP
MEASUREMENT_TYPE: EC50 (nM)
Note: unit nM is implicit; provide only the numeric part.

Query block: Look up EC50 for this compound: CCNC(=O)[C@H]1O[C@@H](n2cnc3c(N)nc(NCCc4ccc(CCC(=O)O)cc4)nc32)[C@H](O)[C@@H]1O
Result block: 1150

---

TESTED_SYSTEM: ventricular myocyte membrane adenylyl cyclase
METHOD_DESCRIPTION: Adenylyl cyclase activity of ventricular myocyte membranes
Assay type: biochemical, rat
CONDITIONS: in the presence of 0.1 μM DPCPX; read-out: EC50 for increase of adenylyl cyclase
MEASUREMENT_TYPE: pEC50
# pEC50 is unitless: minus log10 of the molar concentration; print number only

Query block: Look up pEC50 for this compound: CCNC(=O)[C@H]1O[C@@H](n2cnc3c(N)nc(NCCc4ccc(CCC(=O)O)cc4)nc32)[C@H](O)[C@@H]1O
Result block: 6.59
